System: 379773-124-R-J2-PDC spheroid viability
Measurement Protocol: Anticancer human tumor 379773-124-R-J2-PDC patient-derived endometrial carcinoma cell line growth inhibition [POLQ]
Assay Conditions: second compound 1 µM; first compound 0.1 µM; active compounds read low; spheroids with HUVEC and MSC
Value Kind: viability, T/C (%)

- O=c1[nH]cc(F)c(=O)[nH]1 + Cc1cccc(N(C)C(=O)C2C(O)CCN2c2nc(C)cc(C(F)(F)F)c2C#N)c1: 90.4
- CCCS(=O)(=O)Nc1ccc(F)c(C(=O)c2c[nH]c3ncc(-c4ccc(Cl)cc4)cc23)c1F + Nc1ccc(C#CCN(C(=O)Cc2ncc(C(F)(F)F)cc2C(F)(F)F)c2ccc(F)cc2)nn1: 86.6
- C#Cc1c(F)ccc2cc(O)cc(-c3ncc4c(N5CC6CCC(C5)N6)nc(OCC56CCCN5CC(F)C6)nc4c3F)c12 (centres undefined) + Cc1cccc(N(C)C(=O)C2C(O)CCN2c2nc(C)cc(C(F)(F)F)c2C#N)c1: 78.9
- CC1COCCN1c1cc(C2(O)CC3CCC(C2)O3)c2cnn(-c3ccn[nH]3)c2n1 (centres undefined) + Cc1cccc(N(C)C(=O)C2C(O)CCN2c2nc(C)cc(C(F)(F)F)c2C#N)c1: 49

###

Test system: 379773-124-R-J2-PDC spheroid viability
Measurement Protocol: Anticancer human tumor 379773-124-R-J2-PDC cell line growth inhibition [POLQ]; active = viability on the fitted dose curve at most 10% of control; inactive = the rest;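 also: spheroids exposed to drugs for seven days before readout; percent viability relative to DMSO vehicle control taken as 100%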
Assay Conditions: second compound 10 µM; first compound 0.0316 µM; spheroids with HUVEC and MSC
Outcomes: 1 (yes) = active, 0 (no) = inactive

* CC(C)n1c(=O)n(C)c2cnc3cc(F)c(-c4ccc(OCCCN5CCCCC5)nc4)cc3c21 + COC1C(OC(N)=O)C(O)C(Oc2ccc3c(O)c(NC(=O)c4ccc(O)c(CC=C(C)C)c4)c(=O)oc3c2C)OC1(C)C | 0 (no)
* CCc1c2c(nc3ccc(O)cc13)-c1cc3c(c(=O)n1C2)COC(=O)[C@]3(O)CC + Cc1cccc(N(C)C(=O)C2C(O)CCN2c2nc(C)cc(C(F)(F)F)c2C#N)c1 | 1 (yes)
* COc1cc2cc(C(=O)CCC(=O)O)sc2cc1OC + COC1C(OC(N)=O)C(O)C(Oc2ccc3c(O)c(NC(=O)c4ccc(O)c(CC=C(C)C)c4)c(=O)oc3c2C)OC1(C)C | 0 (no)
* CC[C@@]1(O)C(=O)OCc2c1cc1n(c2=O)Cc2cc3c(CN(C)C)c(O)ccc3nc2-1 + Cc1cccc(N(C)C(=O)C2C(O)CCN2c2nc(C)cc(C(F)(F)F)c2C#N)c1 | 0 (no)
* COc1cccc(OCCCN)c1-c1cc(Nc2cnc(C#N)cn2)n[nH]1 + Nc1ccc(C#CCN(C(=O)Cc2ncc(C(F)(F)F)cc2C(F)(F)F)c2ccc(F)cc2)nn1 | 1 (yes)
* CCc1cc2c(N3CCc4c(cc(Cn5ccnc5)cc4-c4cn(C)nc4C(F)(F)F)C3=O)cc(C)nc2c(OC)n1 + COC1C(OC(N)=O)C(O)C(Oc2ccc3c(O)c(NC(=O)c4ccc(O)c(CC=C(C)C)c4)c(=O)oc3c2C)OC1(C)C | 0 (no)
* O=C(Nc1ccc(O)c(NS(=O)(=O)c2ccc(F)cc2)c1)c1ccc(-c2ccccc2)cc1 + COC1C(OC(N)=O)C(O)C(Oc2ccc3c(O)c(NC(=O)c4ccc(O)c(CC=C(C)C)c4)c(=O)oc3c2C)OC1(C)C | 0 (no)
* COc1cccc(OCCCN)c1-c1cc(Nc2cnc(C#N)cn2)n[nH]1 + Cc1cccc(N(C)C(=O)C2C(O)CCN2c2nc(C)cc(C(F)(F)F)c2C#N)c1 | 1 (yes)
* C#Cc1c(F)ccc2cc(O)cc(-c3ncc4c(N5CC6CCC(C5)N6)nc(OCC56CCCN5CC(F)C6)nc4c3F)c12 (stereo not given) + COC1C(OC(N)=O)C(O)C(Oc2ccc3c(O)c(NC(=O)c4ccc(O)c(CC=C(C)C)c4)c(=O)oc3c2C)OC1(C)C | 0 (no)
* CC[C@@]1(O)C(=O)OCc2c1cc1n(c2=O)Cc2cc3c(CN(C)C)c(O)ccc3nc2-1 + COC1C(OC(N)=O)C(O)C(Oc2ccc3c(O)c(NC(=O)c4ccc(O)c(CC=C(C)C)c4)c(=O)oc3c2C)OC1(C)C | 0 (no)
* CC1COCCN1c1cc(C2(O)CC3CCC(C2)O3)c2cnn(-c3ccn[nH]3)c2n1 (stereo not given) + COC1C(OC(N)=O)C(O)C(Oc2ccc3c(O)c(NC(=O)c4ccc(O)c(CC=C(C)C)c4)c(=O)oc3c2C)OC1(C)C | 0 (no)
* C=CCn1c(=O)c2cnc(Nc3ccc(N4CCN(C)CC4)cc3)nc2n1-c1cccc(C(C)(C)O)n1 + Nc1ccc(C#CCN(C(=O)Cc2ncc(C(F)(F)F)cc2C(F)(F)F)c2ccc(F)cc2)nn1 | 0 (no)
* C=CCn1c(=O)c2cnc(Nc3ccc(N4CCN(C)CC4)cc3)nc2n1-c1cccc(C(C)(C)O)n1 + Cc1cccc(N(C)C(=O)C2C(O)CCN2c2nc(C)cc(C(F)(F)F)c2C#N)c1 | 0 (no)
* O=C(c1cc(Cc2n[nH]c(=O)c3ccccc23)ccc1F)N1CCN(C(=O)C2CC2)CC1 + COC1C(OC(N)=O)C(O)C(Oc2ccc3c(O)c(NC(=O)c4ccc(O)c(CC=C(C)C)c4)c(=O)oc3c2C)OC1(C)C | 0 (no)
* C=CC(=O)N1CCN(c2nc(=O)n(-c3c(C)ccnc3C(C)C)c3nc(-c4c(O)cccc4F)c(F)cc23)C(C)C1 (stereo not given) + Nc1ccc(C#CCN(C(=O)Cc2ncc(C(F)(F)F)cc2C(F)(F)F)c2ccc(F)cc2)nn1 | 0 (no)
* CC(C)n1c(=O)n(C)c2cnc3cc(F)c(-c4ccc(OCCCN5CCCCC5)nc4)cc3c21 + Nc1ccc(C#CCN(C(=O)Cc2ncc(C(F)(F)F)cc2C(F)(F)F)c2ccc(F)cc2)nn1 | 0 (no)
* CNCc1ccc(-c2[nH]c3cc(F)cc4c3c2CCNC4=O)cc1 + Cc1cccc(N(C)C(=O)C2C(O)CCN2c2nc(C)cc(C(F)(F)F)c2C#N)c1 | 0 (no)
* CCCS(=O)(=O)Nc1ccc(F)c(C(=O)c2c[nH]c3ncc(-c4ccc(Cl)cc4)cc23)c1F + COC1C(OC(N)=O)C(O)C(Oc2ccc3c(O)c(NC(=O)c4ccc(O)c(CC=C(C)C)c4)c(=O)oc3c2C)OC1(C)C | 0 (no)
* CC1COCCN1c1cc(C2(O)CC3CCC(C2)O3)c2cnn(-c3ccn[nH]3)c2n1 (stereo not given) + Cc1cccc(N(C)C(=O)C2C(O)CCN2c2nc(C)cc(C(F)(F)F)c2C#N)c1 | 0 (no)
* COc1cc2cc(C(=O)CCC(=O)O)sc2cc1OC + Nc1ccc(C#CCN(C(=O)Cc2ncc(C(F)(F)F)cc2C(F)(F)F)c2ccc(F)cc2)nn1 | 0 (no)

###

Tested on: 379773-124-R-J2-PDC spheroid viability
Measurement Protocol: Anticancer human tumor 379773-124-R-J2-PDC cell line growth inhibition [POLQ];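 also: spheroids exposed to drugs for seven days before readout; percent viability relative to DMSO vehicle control taken as 100%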
Assay Conditions: second compound 0.1 µM; first compound 10 µM; active compounds read low; spheroids with HUVEC and MSC
Field 'label' (enum: Yes / No). Set to Yes when viability, T/C is strictly under 60%; else No.

- Nc1ccn(C2OC(CO)C(O)C2(F)F)c(=O)n1 (stereo not given) + Nc1ccc(C#CCN(C(=O)Cc2ncc(C(F)(F)F)cc2C(F)(F)F)c2ccc(F)cc2)nn1: Yes
- CCc1cc2c(N3CCc4c(cc(Cn5ccnc5)cc4-c4cn(C)nc4C(F)(F)F)C3=O)cc(C)nc2c(OC)n1 + Cc1cccc(N(C)C(=O)C2C(O)CCN2c2nc(C)cc(C(F)(F)F)c2C#N)c1: Yes
- CC(C)n1c(=O)n(C)c2cnc3cc(F)c(-c4ccc(OCCCN5CCCCC5)nc4)cc3c21 + Cc1cccc(N(C)C(=O)C2C(O)CCN2c2nc(C)cc(C(F)(F)F)c2C#N)c1: No
- C=CC(=O)N1CCN(c2nc(=O)n(-c3c(C)ccnc3C(C)C)c3nc(-c4c(O)cccc4F)c(F)cc23)C(C)C1 (stereo not given) + COC1C(OC(N)=O)C(O)C(Oc2ccc3c(O)c(NC(=O)c4ccc(O)c(CC=C(C)C)c4)c(=O)oc3c2C)OC1(C)C: No

###

Collected viability, T/C values appear next to each entry.
Test system: 379773-124-R-J2-PDC spheroid viability
Measurement Protocol: Anticancer human tumor 379773-124-R-J2-PDC cell line growth inhibition [POLQ];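 also: spheroids exposed to drugs for seven days before readout; percent viability relative to DMSO vehicle control taken as 100%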
Assay Conditions: second compound 10 µM; first compound 3.16 µM; active compounds read low; spheroids with HUVEC and MSC
Value Kind: viability, T/C (%)

* CCc1cc2c(N3CCc4c(cc(Cn5ccnc5)cc4-c4cn(C)nc4C(F)(F)F)C3=O)cc(C)nc2c(OC)n1 + COC1C(OC(N)=O)C(O)C(Oc2ccc3c(O)c(NC(=O)c4ccc(O)c(CC=C(C)C)c4)c(=O)oc3c2C)OC1(C)C | 54.9
* CC1COCCN1c1cc(-c2ccnn2C)c2ccnc(-c3ccn[nH]3)c2n1 (configuration not stated) + Nc1ccc(C#CCN(C(=O)Cc2ncc(C(F)(F)F)cc2C(F)(F)F)c2ccc(F)cc2)nn1 | 12.3
* COc1cc2cc(C(=O)CCC(=O)O)sc2cc1OC + Nc1ccc(C#CCN(C(=O)Cc2ncc(C(F)(F)F)cc2C(F)(F)F)c2ccc(F)cc2)nn1 | 84.9
* CNCc1ccc(-c2[nH]c3cc(F)cc4c3c2CCNC4=O)cc1 + COC1C(OC(N)=O)C(O)C(Oc2ccc3c(O)c(NC(=O)c4ccc(O)c(CC=C(C)C)c4)c(=O)oc3c2C)OC1(C)C | 76.7
* O=C(c1cc(Cc2n[nH]c(=O)c3ccccc23)ccc1F)N1CCN(C(=O)C2CC2)CC1 + Nc1ccc(C#CCN(C(=O)Cc2ncc(C(F)(F)F)cc2C(F)(F)F)c2ccc(F)cc2)nn1 | 84.5
* O=C(c1cc(Cc2n[nH]c(=O)c3ccccc23)ccc1F)N1CCN(C(=O)C2CC2)CC1 + COC1C(OC(N)=O)C(O)C(Oc2ccc3c(O)c(NC(=O)c4ccc(O)c(CC=C(C)C)c4)c(=O)oc3c2C)OC1(C)C | 73.5
* CC1COCCN1c1cc(C2(O)CC3CCC(C2)O3)c2cnn(-c3ccn[nH]3)c2n1 (configuration not stated) + Cc1cccc(N(C)C(=O)C2C(O)CCN2c2nc(C)cc(C(F)(F)F)c2C#N)c1 | 7.1
* CC(C)n1c(=O)n(C)c2cnc3cc(F)c(-c4ccc(OCCCN5CCCCC5)nc4)cc3c21 + Cc1cccc(N(C)C(=O)C2C(O)CCN2c2nc(C)cc(C(F)(F)F)c2C#N)c1 | 70.3
* O=C(c1cc(Cc2n[nH]c(=O)c3ccccc23)ccc1F)N1CCN(C(=O)C2CC2)CC1 + Cc1cccc(N(C)C(=O)C2C(O)CCN2c2nc(C)cc(C(F)(F)F)c2C#N)c1 | 73.4
* CC1COCCN1c1cc(C2(O)CC3CCC(C2)O3)c2cnn(-c3ccn[nH]3)c2n1 (configuration not stated) + Nc1ccc(C#CCN(C(=O)Cc2ncc(C(F)(F)F)cc2C(F)(F)F)c2ccc(F)cc2)nn1 | 9.99
* C#Cc1c(F)ccc2cc(O)cc(-c3ncc4c(N5CC6CCC(C5)N6)nc(OCC56CCCN5CC(F)C6)nc4c3F)c12 (configuration not stated) + Nc1ccc(C#CCN(C(=O)Cc2ncc(C(F)(F)F)cc2C(F)(F)F)c2ccc(F)cc2)nn1 | 91.3
* COc1cccc2c1C(=O)c1c(O)c3c(c(O)c1C2=O)CC(O)(C(=O)CO)CC3OC1CC(N)C(O)C(C)O1 (configuration not stated) + COC1C(OC(N)=O)C(O)C(Oc2ccc3c(O)c(NC(=O)c4ccc(O)c(CC=C(C)C)c4)c(=O)oc3c2C)OC1(C)C | 0.98
* COc1cccc2c1C(=O)c1c(O)c3c(c(O)c1C2=O)CC(O)(C(=O)CO)CC3OC1CC(N)C(O)C(C)O1 (configuration not stated) + Cc1cccc(N(C)C(=O)C2C(O)CCN2c2nc(C)cc(C(F)(F)F)c2C#N)c1 | 0.51
* Nc1ccn(C2OC(CO)C(O)C2(F)F)c(=O)n1 (configuration not stated) + COC1C(OC(N)=O)C(O)C(Oc2ccc3c(O)c(NC(=O)c4ccc(O)c(CC=C(C)C)c4)c(=O)oc3c2C)OC1(C)C | 8.15
* O=c1[nH]cc(F)c(=O)[nH]1 + Nc1ccc(C#CCN(C(=O)Cc2ncc(C(F)(F)F)cc2C(F)(F)F)c2ccc(F)cc2)nn1 | 63.1
* C#Cc1c(F)ccc2cc(O)cc(-c3ncc4c(N5CC6CCC(C5)N6)nc(OCC56CCCN5CC(F)C6)nc4c3F)c12 (configuration not stated) + Cc1cccc(N(C)C(=O)C2C(O)CCN2c2nc(C)cc(C(F)(F)F)c2C#N)c1 | 88.9
* CC1COCCN1c1cc(C2(O)CC3CCC(C2)O3)c2cnn(-c3ccn[nH]3)c2n1 (configuration not stated) + COC1C(OC(N)=O)C(O)C(Oc2ccc3c(O)c(NC(=O)c4ccc(O)c(CC=C(C)C)c4)c(=O)oc3c2C)OC1(C)C | 7.38
